Study System: δ opioid receptor (Homo sapiens)
Sequence (P41143 whole entry): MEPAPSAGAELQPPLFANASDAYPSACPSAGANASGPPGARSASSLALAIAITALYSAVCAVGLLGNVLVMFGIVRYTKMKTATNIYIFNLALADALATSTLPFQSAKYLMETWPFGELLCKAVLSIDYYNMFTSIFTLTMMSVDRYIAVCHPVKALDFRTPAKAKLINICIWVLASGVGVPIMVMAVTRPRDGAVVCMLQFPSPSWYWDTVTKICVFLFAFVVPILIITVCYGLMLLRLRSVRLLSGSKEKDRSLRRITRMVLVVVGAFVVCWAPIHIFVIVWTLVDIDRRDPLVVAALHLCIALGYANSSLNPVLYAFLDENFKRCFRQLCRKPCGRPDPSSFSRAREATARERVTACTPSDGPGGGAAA
Measurement Kind: Ki (nM)
Express it in nM; write the number only.

Enquiry: // Ki lookup, key: N=C(N)Nc1ccc2[nH]c3c(c2c1)C[C@@]1(O)[C@H]2Cc4ccc(O)c5c4[C@@]1(CCN2CC1CC1)[C@H]3O5 [GNTI, 5′-guanidinonaltrindole]
Return: 58

* * *

Study System: α2B (Homo sapiens, UniProt P18089)
Sequence (P18089 whole entry): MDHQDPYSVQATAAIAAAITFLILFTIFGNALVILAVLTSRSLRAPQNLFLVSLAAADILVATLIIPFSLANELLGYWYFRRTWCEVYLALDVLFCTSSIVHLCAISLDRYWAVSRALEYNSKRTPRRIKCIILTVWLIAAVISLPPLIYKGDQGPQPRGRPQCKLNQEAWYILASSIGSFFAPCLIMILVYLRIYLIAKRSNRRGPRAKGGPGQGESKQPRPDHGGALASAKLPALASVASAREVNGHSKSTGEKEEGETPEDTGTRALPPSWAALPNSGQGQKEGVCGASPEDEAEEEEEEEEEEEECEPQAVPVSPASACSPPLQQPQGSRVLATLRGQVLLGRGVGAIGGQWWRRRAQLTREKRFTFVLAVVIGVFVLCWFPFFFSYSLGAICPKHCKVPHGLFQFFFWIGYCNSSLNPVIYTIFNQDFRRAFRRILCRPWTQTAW
Method: Radioligand displacement, α2B
Format: binding
Condition: [3H] radioligand Rauwolscine; Human, Cloned
pKi: −log10 of the molar value.
Measurement Kind: pKi

Here's what some known entries look like.
Compound | pKi
N=C(N)Nc1ccc2[nH]c3c(c2c1)C[C@@]1(O)[C@H]2Cc4ccc(O)c5c4[C@@]1(CCN2CC1CC1)[C@H]3O5 [GNTI, 5′-guanidinonaltrindole] | ≤ 5.00
Oc1ccc2c3c1O[C@H]1c4[nH]c5c(c4C[C@@]4(O)[C@@H](C2)N(CC2CC2)CC[C@]314)C[C@@]1(O)[C@H]2Cc3ccc(O)c4c3[C@@]1(CCN2CC1CC1)[C@H]5O4 [nor-BNI, Nor-binaltorphimine] | 5.84

# evaluate next
Enquiry: // pKi lookup, key: CC(C)[C@@H](CN1CC[C@@](C)(c2cccc(O)c2)[C@@H](C)C1)NC(=O)[C@H]1Cc2ccc(O)cc2CN1 [JDTic]
Return: ≤ 5.00

* * *

Study System: σ2 (Rattus norvegicus, UniProt Q5U3Y7)
Sequence (Q5U3Y7 whole entry): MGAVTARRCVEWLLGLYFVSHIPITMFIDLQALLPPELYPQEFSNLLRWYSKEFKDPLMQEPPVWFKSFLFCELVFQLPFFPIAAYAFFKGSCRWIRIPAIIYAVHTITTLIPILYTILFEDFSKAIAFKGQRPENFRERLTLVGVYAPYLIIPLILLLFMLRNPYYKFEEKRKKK
Method: Radioligand displacement, σ2
Format: binding
Each entry below lists one item and its recorded Ki value.

Smiles | Measurement Kind | Result
N=C(N)Nc1ccc2[nH]c3c(c2c1)C[C@@]1(O)[C@H]2Cc4ccc(O)c5c4[C@@]1(CCN2CC1CC1)[C@H]3O5 | Ki | ≥ 10 µM

Enquiry: // Ki lookup, key: Oc1ccc2c3c1O[C@H]1c4[nH]c5c(c4C[C@@]4(O)[C@@H](C2)N(CC2CC2)CC[C@]314)C[C@@]1(O)[C@H]2Cc3ccc(O)c4c3[C@@]1(CCN2CC1CC1)[C@H]5O4
Return: ≥ 10 µM

* * *

Study System: D2 (Homo sapiens)
Sequence (P14416 whole entry): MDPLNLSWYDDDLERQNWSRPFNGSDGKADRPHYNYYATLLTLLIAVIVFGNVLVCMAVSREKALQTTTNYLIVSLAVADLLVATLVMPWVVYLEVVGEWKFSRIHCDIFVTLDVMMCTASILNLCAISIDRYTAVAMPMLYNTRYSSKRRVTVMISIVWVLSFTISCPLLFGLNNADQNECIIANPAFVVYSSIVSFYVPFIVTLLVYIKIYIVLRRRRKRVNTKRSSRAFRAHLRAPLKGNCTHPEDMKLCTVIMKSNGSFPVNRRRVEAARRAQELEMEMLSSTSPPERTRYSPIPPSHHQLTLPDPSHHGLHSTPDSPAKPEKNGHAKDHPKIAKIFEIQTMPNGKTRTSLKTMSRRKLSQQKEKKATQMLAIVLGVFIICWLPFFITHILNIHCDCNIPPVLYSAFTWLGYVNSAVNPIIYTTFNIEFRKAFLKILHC
Method: Radioligand displacement, D2
Assay type: binding
Condition: [3H] radioligand N-Methylspiperone; Human, Cloned; read-out: Ki
Measurement Kind: Ki

Enquiry: Request: Ki, test system D2 (Homo sapiens), entry CC(C)[C@@H](CN1CC[C@@](C)(c2cccc(O)c2)[C@@H](C)C1)NC(=O)[C@H]1Cc2ccc(O)cc2CN1
Return: ≥ 10 µM

* * *

Study System: D5 (Homo sapiens, UniProt P21918)
Sequence (P21918 whole entry): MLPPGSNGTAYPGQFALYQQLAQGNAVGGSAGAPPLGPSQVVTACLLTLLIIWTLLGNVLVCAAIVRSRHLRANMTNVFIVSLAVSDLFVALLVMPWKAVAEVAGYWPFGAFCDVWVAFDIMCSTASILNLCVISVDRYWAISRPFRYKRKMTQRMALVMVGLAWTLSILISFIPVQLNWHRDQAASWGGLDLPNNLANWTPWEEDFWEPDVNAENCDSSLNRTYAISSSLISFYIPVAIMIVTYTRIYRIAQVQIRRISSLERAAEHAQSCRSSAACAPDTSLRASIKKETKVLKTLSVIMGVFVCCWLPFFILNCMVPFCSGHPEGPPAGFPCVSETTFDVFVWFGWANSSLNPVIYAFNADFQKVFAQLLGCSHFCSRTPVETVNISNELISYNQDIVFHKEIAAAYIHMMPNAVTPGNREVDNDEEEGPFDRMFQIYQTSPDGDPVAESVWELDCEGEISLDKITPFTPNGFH
Method: Radioligand displacement, D5
Type: binding
Condition: [3H] radioligand SCH23390; Human, Cloned; read-out: Ki
Measurement Kind: Ki

Enquiry: // Ki lookup, key: CC(C)[C@@H](CN1CC[C@@](C)(c2cccc(O)c2)[C@@H](C)C1)NC(=O)[C@H]1Cc2ccc(O)cc2CN1 [JDTic]
Return: ≥ 10 µM

* * *

Study System: DAT (Homo sapiens)
Sequence (Q01959 whole entry): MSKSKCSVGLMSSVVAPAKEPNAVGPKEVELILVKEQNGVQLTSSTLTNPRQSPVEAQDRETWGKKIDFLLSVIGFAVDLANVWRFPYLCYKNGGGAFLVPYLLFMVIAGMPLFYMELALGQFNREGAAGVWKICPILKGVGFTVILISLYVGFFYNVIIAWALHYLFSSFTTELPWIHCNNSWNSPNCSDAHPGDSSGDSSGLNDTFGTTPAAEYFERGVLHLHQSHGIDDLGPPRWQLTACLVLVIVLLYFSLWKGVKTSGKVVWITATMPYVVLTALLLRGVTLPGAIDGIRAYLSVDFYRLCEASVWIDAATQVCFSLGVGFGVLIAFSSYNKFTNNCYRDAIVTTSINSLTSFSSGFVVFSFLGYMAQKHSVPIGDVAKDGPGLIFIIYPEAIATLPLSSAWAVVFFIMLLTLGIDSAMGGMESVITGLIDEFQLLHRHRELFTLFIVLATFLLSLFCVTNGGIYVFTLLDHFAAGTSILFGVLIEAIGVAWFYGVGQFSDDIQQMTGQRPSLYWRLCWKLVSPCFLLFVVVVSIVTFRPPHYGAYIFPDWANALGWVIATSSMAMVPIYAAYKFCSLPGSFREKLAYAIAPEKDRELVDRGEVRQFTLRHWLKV
Method: Radioligand displacement, DAT
Each entry below lists one item and its recorded Ki value.

Enquiry: // Ki lookup, key: N=C(N)Nc1ccc2[nH]c3c(c2c1)C[C@@]1(O)[C@H]2Cc4ccc(O)c5c4[C@@]1(CCN2CC1CC1)[C@H]3O5
Return: ≥ 10 µM

Enquiry: Entry to check: Oc1ccc2c3c1O[C@H]1c4[nH]c5c(c4C[C@@]4(O)[C@@H](C2)N(CC2CC2)CC[C@]314)C[C@@]1(O)[C@H]2Cc3ccc(O)c4c3[C@@]1(CCN2CC1CC1)[C@H]5O4
Return: ≥ 10 µM
